- testedTarget: Apical membrane antigen 1 (Plasmodium falciparum (isolate 3D7))
- procedureDetails: Binding affinity to Plasmodium falciparum 3D7 AMA1 (108 to 434) expressed in Escherichia coli BL21(DE3) by SPR analysis
experimentalEndpoint: Kd (nM)
Only the number, expressed in nM, is required.

Ask | Recorded Kd of H-VFAEFLPLFSKFGSRMHILK-OH , please.
Reply | 23

###

- testedTarget: Apical membrane antigen 1 (Plasmodium falciparum (isolate 3D7))
- procedureDetails: Binding affinity to Plasmodium falciparum 3D7 5F-Trp-tagged AMA1 assessed as downfield shifts of W110 peak by 19F-NMR spectroscopy in presence of R1/RON2L
Activity calls are given as the source filed them. The rule behind the calls is not given here. Residues, ends and D or L forms follow the SMILES beside them.
experimentalEndpoint: Activity

CC[C@H](C)[C@H](NC(=O)[C@H](CCC(N)=O)NC(=O)[C@H](CCC(N)=O)NC(=O)[C@@H]1CCCN1C(=O)[C@@H]1CCCN1C(=O)[C@H](CO)NC(=O)[C@H](CCSC)NC(=O)[C@H](CCCNC(=N)N)NC(=O)[C@@H](NC(=O)[C@@H](NC(=O)[C@H](Cc1ccccc1)NC(=O)[C@@H](N)CS)[C@@H](C)O)[C@@H](C)O)C(=O)N[C@@H](CS)C(=O)O (H-CFTTRMSPPQQIC-OH) | Active
Nc1cc(N)cc(-c2nc3ccccc3[nH]2)c1 | Active
Nc1ccc2nc(N3CCCCC3)[nH]c2c1 | Dose-dependent effect
Cc1nc(N)sc1-c1ccc(N)cc1 | Dose-dependent effect

###

- testedTarget: Apical membrane antigen 1 (Plasmodium falciparum (isolate 3D7), UniProt Q7KQK5, F367W)
- procedureDetails: Binding affinity to Plasmodium falciparum 3D7 AMA1 F367W mutant expressed in Escherichia coli BL21(DE3) at 1 and 3 mM by SPR analysis
experimentalEndpoint: Kd

Ask | Recorded Kd of H-VFAEFLPLFSKFGSRMHILK-OH , please.
Reply | 20 nM

###

- testedTarget: Apical membrane antigen 1 (Plasmodium falciparum (isolate 3D7))
- procedureDetails: Binding affinity to Plasmodium falciparum 3D7 AMA1 373W insertion mutant expressed in Escherichia coli BL21(DE3) by SPR analysis
experimentalEndpoint: Kd (µM)
Only the number, expressed in µM, is required.

Ask | Recorded Kd of H-VFAEFLPLFSKFGSRMHILK-OH , please.
Reply | 0.05
